Molecular target: UDP-glucuronosyltransferase 2B7 (Homo sapiens)
Sequence (P16662 whole entry): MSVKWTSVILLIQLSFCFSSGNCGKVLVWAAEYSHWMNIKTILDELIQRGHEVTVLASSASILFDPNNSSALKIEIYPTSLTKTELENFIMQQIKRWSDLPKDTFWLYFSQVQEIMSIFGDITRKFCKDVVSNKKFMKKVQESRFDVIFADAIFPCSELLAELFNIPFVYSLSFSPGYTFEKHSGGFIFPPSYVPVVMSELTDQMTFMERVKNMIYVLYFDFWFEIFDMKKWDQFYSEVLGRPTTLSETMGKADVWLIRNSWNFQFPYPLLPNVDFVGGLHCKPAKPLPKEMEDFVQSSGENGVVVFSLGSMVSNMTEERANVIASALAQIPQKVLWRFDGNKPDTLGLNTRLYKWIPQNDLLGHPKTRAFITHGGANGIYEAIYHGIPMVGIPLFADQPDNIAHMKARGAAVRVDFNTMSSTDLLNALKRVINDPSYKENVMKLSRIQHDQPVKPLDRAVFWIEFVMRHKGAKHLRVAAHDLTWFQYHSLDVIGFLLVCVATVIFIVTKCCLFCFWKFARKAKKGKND
pIC50: −log10 of the molar value.
Recorded measurements of pIC50, one per entry

Solved entries (count: 4):
1) CC(=O)N1CCN(c2ccc(OC[C@@H]3CO[C@@](Cn4ccnc4)(c4ccc(Cl)cc4Cl)O3)cc2)CC1 : 4.22
2) C[C@]12CC[C@H]3[C@@H](CCC4=CC(=O)CC[C@@]43C)[C@@H]1CC[C@@H]2O : 3.78
3) Cc1ncc2n1-c1ccc(Cl)cc1C(c1ccccc1F)=NC2 : 3.83
4) Nc1ccc(S(=O)(=O)Nc2ccnn2-c2ccccc2)cc1 : < 3.52

GET /value?item= "CCCCNC(=O)NS(=O)(=O)c1ccc(C)cc1" &field=pIC50 returns < 3.52

Notebook: "CC[C@@]1(c2ccccc2)NC(=O)N(C)C1=O" , pIC50 read as < 3.52

###

// reported IC50 for each item listed
Target: UniProt:P36537
Sequence (P36537 whole entry): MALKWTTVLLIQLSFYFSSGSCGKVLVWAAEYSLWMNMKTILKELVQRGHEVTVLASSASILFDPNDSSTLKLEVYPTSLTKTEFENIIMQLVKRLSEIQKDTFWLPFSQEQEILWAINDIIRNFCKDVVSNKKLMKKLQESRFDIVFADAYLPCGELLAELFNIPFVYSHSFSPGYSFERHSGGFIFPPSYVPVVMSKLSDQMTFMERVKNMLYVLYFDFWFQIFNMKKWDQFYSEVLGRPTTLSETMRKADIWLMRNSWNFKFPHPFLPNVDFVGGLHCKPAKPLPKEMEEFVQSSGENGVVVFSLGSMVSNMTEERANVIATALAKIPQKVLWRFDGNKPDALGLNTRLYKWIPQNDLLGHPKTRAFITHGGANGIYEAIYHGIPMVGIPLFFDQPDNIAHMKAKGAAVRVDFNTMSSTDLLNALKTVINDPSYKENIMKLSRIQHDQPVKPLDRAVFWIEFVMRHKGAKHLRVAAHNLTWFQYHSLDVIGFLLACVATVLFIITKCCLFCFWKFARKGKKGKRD
Counter-ions that a name gives are not always drawn.

Solved entries (count: 5):
1) CC(=O)O[C@H]1C(=O)[C@@]2(C)[C@H]([C@H](OC(=O)c3ccccc3)[C@]3(O)C[C@H](OC(=O)[C@H](O)[C@@H](NC(=O)c4ccccc4)c4ccccc4)C(C)=C1C3(C)C)[C@]1(OC(C)=O)CO[C@@H]1C[C@@H]2O : > 300 µM
2) CC(NC(C)(C)C)C(=O)c1cccc(Cl)c1 (centres undefined) [BUPROPION HYDROCHLORIDE] : 88 µM
3) O=c1cc(-c2ccccc2)oc2c1ccc1ccccc12 : > 300 µM
4) Cc1ncc2n1-c1ccc(Cl)cc1C(c1ccccc1F)=NC2 : 106 µM
5) COc1ccc2c(c1)[C@@]13CCCC[C@@H]1[C@@H](C2)N(C)CC3 : 62 µM

Item "C[C@]12CC[C@H]3[C@@H](CCC4=CC(=O)CC[C@@]43C)[C@@H]1CC[C@@H]2O" was tested on UniProt:P36537; the reported IC50 is > 300 µM

"O=c1ccc2ccccc2o1" tested on UniProt:P36537 gave IC50: > 300 µM

// assay UniProt:P36537, entry "CC[C@@]1(c2ccccc2)NC(=O)N(C)C1=O" , IC50 value = > 300 µM

For the compound "Cc1ncsc1CCCl" , the measured IC50 on UniProt:P36537 was > 300 µM

###

Recorded pIC50 by entry
Molecular target: UDP-glucuronosyltransferase 1A1 (Homo sapiens, UniProt P22309)
Sequence (P22309 whole entry): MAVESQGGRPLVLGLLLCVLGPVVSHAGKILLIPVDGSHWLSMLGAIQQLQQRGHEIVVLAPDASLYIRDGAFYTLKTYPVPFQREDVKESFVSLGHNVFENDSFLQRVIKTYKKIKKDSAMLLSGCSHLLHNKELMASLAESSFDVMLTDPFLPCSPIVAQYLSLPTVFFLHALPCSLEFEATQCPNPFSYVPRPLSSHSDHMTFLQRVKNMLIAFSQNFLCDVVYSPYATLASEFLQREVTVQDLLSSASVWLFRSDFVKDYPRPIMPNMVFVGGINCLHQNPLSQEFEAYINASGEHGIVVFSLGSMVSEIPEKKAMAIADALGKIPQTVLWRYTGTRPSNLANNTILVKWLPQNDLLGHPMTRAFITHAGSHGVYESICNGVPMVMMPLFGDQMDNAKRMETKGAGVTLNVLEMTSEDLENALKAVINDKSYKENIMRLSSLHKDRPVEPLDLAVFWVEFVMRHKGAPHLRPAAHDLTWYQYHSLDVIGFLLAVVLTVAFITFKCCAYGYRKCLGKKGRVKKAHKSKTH
Assay: UDP-glucuronosyltransferase Activity Assay
pIC50: −log10 of the molar value. Structures can show the parent of a compound that is named as a salt.

Solved cases below.
1. C=C[C@H]1C[N@@]2CC[C@H]1C[C@@H]2[C@@H](O)c1ccnc2ccc(OC)cc12 : < 3.52
2. CCOc1ccc(NC(C)=O)cc1 : < 3.52

Entry COc1ccc2[nH]c([S+]([O-])Cc3ncc(C)c(OC)c3C)nc2c1 (stereo not given) , pIC50 reported as 4.25

compound "COc1ccc2c(c1)[C@@]13CCCC[C@@H]1[C@@H](C2)N(C)CC3" , pIC50 observed: < 3.52

So for CC(NC(C)(C)C)C(=O)c1cccc(Cl)c1 (stereo not given) [BUPROPION HYDROCHLORIDE] , the logged pIC50 turned out to be < 3.52
